tested on: PPARg:RXRa 270nM:90nM, anti-RXR (NR concentration 270 nM, RXRa partner concentration 90 nM); experiment: PBM binding z-score (relative to random genomic background probes); higher = stronger binding; sequences stand for … in GC…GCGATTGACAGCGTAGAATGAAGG
Outcome: yes (1) for PBM binding z-score of at least 2; no (0) for anything lower.

CCTACTGGGCCAGGAAAGGTCATTGATTCAGTGA; yes (1)
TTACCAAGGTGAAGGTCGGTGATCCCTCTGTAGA; yes (1)
GGAACGAGGGCAAAGATGATAGCATCTGTCGACG; yes (1)
TCACGGAGGACACGAAAGGTCAGAGCTCGACATC; yes (1)
GCTAGCAGGCCATTTGGGTCACTGAATGACGGGC; no (0)
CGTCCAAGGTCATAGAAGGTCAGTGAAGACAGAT; yes (1)

API: above_or_equal(metric=PBM binding z-score, cutoff=2) for item CTCGAAAGGTCGGTTGAAGTGAGTATACGGATAA
no (0)

API: above_or_equal(metric=PBM binding z-score, cutoff=2) for item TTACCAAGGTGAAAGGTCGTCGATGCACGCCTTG
yes (1)

API: above_or_equal(metric=PBM binding z-score, cutoff=2) for item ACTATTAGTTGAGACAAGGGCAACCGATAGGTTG
no (0)

API: above_or_equal(metric=PBM binding z-score, cutoff=2) for item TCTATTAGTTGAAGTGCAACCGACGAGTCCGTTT
yes (1)

API: above_or_equal(metric=PBM binding z-score, cutoff=2) for item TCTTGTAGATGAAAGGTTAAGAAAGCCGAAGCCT
yes (1)

API: above_or_equal(metric=PBM binding z-score, cutoff=2) for item AGAATGAGGTTAAGATCAGTGAAACAGAATACAT
yes (1)

API: above_or_equal(metric=PBM binding z-score, cutoff=2) for item CGAACTAGGTGATCCAGGACAGTGAATACATTGA
no (0)

API: above_or_equal(metric=PBM binding z-score, cutoff=2) for item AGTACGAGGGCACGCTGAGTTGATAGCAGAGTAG
no (0)

API: above_or_equal(metric=PBM binding z-score, cutoff=2) for item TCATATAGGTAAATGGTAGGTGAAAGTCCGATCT
yes (1)

----------
system: RARa homodimer (NR concentration 270 nM); experiment: PBM binding z-score (relative to random genomic background probes); higher = stronger binding; sequences stand for … in GC…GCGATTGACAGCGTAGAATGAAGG
Would you mind telling me the reported PBM binding z-score of each entry?

Provide reported PBM binding z-score for each item, in the same order as listed.
1. CGAACAAGGGCATGAGTTGATAGCAAATGCCGAT
2. AGAACGAGGGCAATGAGTTGATAACACGGGTGGC
3. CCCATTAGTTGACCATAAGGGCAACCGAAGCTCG

1. 0.0122
2. -0.633
3. 1.57

Provide reported PBM binding z-score for each item, in the same order as listed.
1. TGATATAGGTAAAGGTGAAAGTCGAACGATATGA
2. ATCTCTAGGTAACAAGTTTAGTGAAAGAGAGGAC
3. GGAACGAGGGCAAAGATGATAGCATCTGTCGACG

1.63
0.873
-0.373

Provide reported PBM binding z-score for each item, in the same order as listed.
1. CAGCCTAGGTCAGGGCCAGTCTAGGAGGAACGTT
2. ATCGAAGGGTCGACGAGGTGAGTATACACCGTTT

1. -0.6
2. -0.471

Provide reported PBM binding z-score for each item, in the same order as listed.
1. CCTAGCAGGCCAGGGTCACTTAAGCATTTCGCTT
2. TGAATGAGGTTATAAGATCAGGCAACGTTGCAAA
3. TCTTGTAGATCTACAGGAGGTTAAGAAAGATCGA

1: 0.0986; 2: 0.212; 3: -0.41

----------
tested on: PPARg DBDmut:RXRa IVT, anti-PPARg (DBD mutation: PPARg1 K132A/R137A, NR concentration 270 nM, RXRa partner concentration 90 nM); assay: PBM binding z-score (relative to random genomic background probes); higher = stronger binding; sequences stand for … in GC…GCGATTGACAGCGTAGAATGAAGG
OUTCOME_MEASURE: PBM binding z-score

Known PBM binding z-score results, listed for orientation:
CCTACTGGGCCACGAAAAGTCATTGATTCAGTGA; -0.0211
ACAAACAGGTGAGTGAAGGTAACTCAGCTGGACG; 0.208
GGAACGATGGCATTCGAGTTGATAGCATGGCGAT; -0.636
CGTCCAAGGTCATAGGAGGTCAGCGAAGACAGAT; 0.336
AGTCAAAGTTCACTAGGGAACGTAAGATTCAGCT; 0.753

Provide reported PBM binding z-score for each item, in the same order as listed.
1. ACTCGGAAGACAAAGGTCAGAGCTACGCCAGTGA
2. AGAATGAGGTTATTAAGATCAGGGCATTGCGGTC

0.488
0.978

----------
tested on: PPARg:RXRa 30nM:10nM, anti-RXR (NR concentration 30 nM, RXRa partner concentration 10 nM); assay: PBM binding z-score (relative to random genomic background probes); higher = stronger binding; sequences stand for … in GC…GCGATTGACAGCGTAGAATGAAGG
Would you mind telling me the reported PBM binding z-score of each entry?
Answers are plain numbers.

AGAATGAGGTTACCTAAGATCAGGGAAACGCTTG; 0.68
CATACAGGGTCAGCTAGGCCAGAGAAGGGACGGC; 0.62
CCAACGAGGGCATGAGTTGATAGCAAATGCCGAT; -0.155
TCTTCTAGGTCAGTTGGTCAGCTAACGAGCTGCC; 4.38
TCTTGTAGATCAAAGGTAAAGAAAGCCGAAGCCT; 6.21
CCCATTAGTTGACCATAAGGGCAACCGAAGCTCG; -0.068
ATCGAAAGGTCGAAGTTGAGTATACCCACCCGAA; 1.49
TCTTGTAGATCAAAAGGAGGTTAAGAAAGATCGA; 2.91
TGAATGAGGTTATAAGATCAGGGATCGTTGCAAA; 0.946
GCTGCTAGGTTAGGTTGGTCAGCTAACGGGTACG; -0.769

Provide reported PBM binding z-score for each item, in the same order as listed.
1. CCTATTAGTTAACCATAAGGGCAACCGAAGCTCG
2. CAAACTAGGTCACAGAGGCCAAAGTCCGTGCGTA

1: 0.166; 2: 5.35

Provide reported PBM binding z-score for each item, in the same order as listed.
1. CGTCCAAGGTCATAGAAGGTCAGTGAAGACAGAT
2. CGTCCAAGGCCAAAGGTCAGTGAAGAGATGACGG

[2.37, 5.65]

----------
test system: LXRa:RXRa (NR concentration 270 nM, RXRa partner concentration 90 nM); assay: PBM binding z-score (relative to random genomic background probes); higher = stronger binding; sequences stand for … in GC…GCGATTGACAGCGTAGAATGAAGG
OUTCOME_MEASURE: PBM binding z-score

CCTACTAGGCCATTCAGAGGTCATTGATCATATG; 4.52
CCTATTGGGCCAAAGGTCATTGATTCCAATGCTC; 5.15
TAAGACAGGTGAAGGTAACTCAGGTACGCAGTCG; 1.42
TGACCAAGGTGAGCTGAGGTCGTTGATCCAACTC; 1.01
CCGACCGGGGCAAAGGTTACCATACTCAGTACGA; 2.1

Provide reported PBM binding z-score for each item, in the same order as listed.
1. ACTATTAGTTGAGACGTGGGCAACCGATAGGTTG
2. CGAACTACGTCAGAACAGGACAGTGAAGGATGAT
3. CGAACTAGGTCAGAACAGGACAGAGAAGGATGAT
4. TCTATTAGTTGACTAGGGCAACCGAAACAGCGGA
5. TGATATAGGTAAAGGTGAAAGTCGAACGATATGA
6. CCTACTGGGCAATTCAGAGGTCATTGATCATATG

[-0.403, -0.582, 0.878, 0.805, 1.26, 4.41]

Provide reported PBM binding z-score for each item, in the same order as listed.
1. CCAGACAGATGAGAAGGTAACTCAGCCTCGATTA
2. CCTACTGGGCCACGGAAGGTCATTGATTCAGTGA
3. CCTCGGAGGACGACAGGAGGTCAGAGCTGCCAGA
4. ACTATTAGTTGACTTAGGGCAAGCGATACGACGC
5. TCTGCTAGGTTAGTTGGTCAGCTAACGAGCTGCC
6. AATACAGGGTCATCGTAGACCAGAGTACGCACAG
7. GCGACTGGGGCATCAGCAAGTTACCATAACTTAA

1: -0.0249; 2: 2.96; 3: 1.38; 4: 0.302; 5: -0.402; 6: 5.86; 7: -0.587

Provide reported PBM binding z-score for each item, in the same order as listed.
1. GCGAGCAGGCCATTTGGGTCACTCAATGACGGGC
2. TCTAGTTGGTCACGGAGGTCACAGACGACGGGTA

1: -0.0343; 2: 3.46

Provide reported PBM binding z-score for each item, in the same order as listed.
1. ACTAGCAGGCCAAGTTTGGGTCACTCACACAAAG
2. CCTTACGGGGCACTCCAGGTTATAGCATCGGAGT
3. ATCTCTAGGTAAAGATAGTTCAGGGAATGCAAAT

[0.288, 5.05, 3.65]
